This listing pairs molecules with measured inhibition.
molecular target: Sodium-dependent serotonin transporter (Rattus norvegicus) (UniProt P31652); experiment: Inhibition of rat synaptosomes 5HT transporter assessed as reduction in [3H]serotonin reuptake at 1 uM incubated for 15 mins by scintillation counting method relative to control; format: subcellular
Sequence (P31652 whole entry): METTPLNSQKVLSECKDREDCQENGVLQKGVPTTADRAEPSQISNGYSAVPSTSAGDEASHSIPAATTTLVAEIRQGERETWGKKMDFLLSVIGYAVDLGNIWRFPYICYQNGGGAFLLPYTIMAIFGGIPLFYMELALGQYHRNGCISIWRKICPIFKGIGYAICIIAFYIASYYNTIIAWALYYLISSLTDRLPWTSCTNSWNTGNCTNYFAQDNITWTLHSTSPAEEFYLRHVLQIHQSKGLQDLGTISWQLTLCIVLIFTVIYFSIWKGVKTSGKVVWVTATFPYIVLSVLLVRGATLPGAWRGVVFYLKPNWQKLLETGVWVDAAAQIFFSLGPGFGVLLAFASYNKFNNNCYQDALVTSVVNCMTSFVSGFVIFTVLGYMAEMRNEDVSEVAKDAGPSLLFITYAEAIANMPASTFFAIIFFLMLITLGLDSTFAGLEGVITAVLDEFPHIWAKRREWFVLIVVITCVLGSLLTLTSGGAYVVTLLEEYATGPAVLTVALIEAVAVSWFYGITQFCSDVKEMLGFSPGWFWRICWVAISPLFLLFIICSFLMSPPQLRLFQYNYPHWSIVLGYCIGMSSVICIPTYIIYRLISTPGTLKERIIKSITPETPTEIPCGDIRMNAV
Lab book: enter the figure in %, no units written.

smiles	target entity	inhibition (%)
Fc1ccc(-c2cc(F)ccc2OCCN2CCC(c3c[nH]c4ccc(F)cc34)CC2)cc1	Sodium-dependent serotonin transporter (Rattus norvegicus) (UniProt P31652)	90.6

Here is the next item to consider.
Q: So what's the measured inhibition for this one? Fc1ccc(OCCN2CCC(CCc3c[nH]c4ccc(F)cc34)CC2)c(-c2ccccc2)c1
A: 99.8
